Test: xn = mol fraction of the nth substance listed
Details: 298.15 K; 101.3 kPa; Liquid; Taylor dispersion method; x2 = 0
endpoint: binary diffusion coefficient (m2/s)
Answer format: numeric, m2/s implied, no suffix.

Q) So what does the record say about binary diffusion coefficient for CCCCCC [hexane] + CCO ?
A) 5.74e-09

Q) Note, next up: ClC(Cl)(Cl)Cl [tetrachloromethane] + CCO
A) 1.9e-09

Q) Note, next up: CCCCCC [hexane] + CCCO
A) 5.2e-09

Q) Note, next up: Cc1ccccc1 [toluene] + CCO
A) 3.12e-09

Q) Note, next up: ClC(Cl)(Cl)Cl [tetrachloromethane] + CCCO
A) 1.61e-09

Q) Note, next up: ClC(Cl)(Cl)Cl [tetrachloromethane] + CCCCO
A) 1.47e-09

Q) Note, next up: Cc1ccccc1 [toluene] + CCCO
A) 2.67e-09
